meta.source: ChEMBL document CHEMBL3988442

Item-by-item account of Percent Effect
TEST TARGET: Arginase-2, mitochondrial (Homo sapiens) (UniProt P78540)
Sequence (P78540 whole entry): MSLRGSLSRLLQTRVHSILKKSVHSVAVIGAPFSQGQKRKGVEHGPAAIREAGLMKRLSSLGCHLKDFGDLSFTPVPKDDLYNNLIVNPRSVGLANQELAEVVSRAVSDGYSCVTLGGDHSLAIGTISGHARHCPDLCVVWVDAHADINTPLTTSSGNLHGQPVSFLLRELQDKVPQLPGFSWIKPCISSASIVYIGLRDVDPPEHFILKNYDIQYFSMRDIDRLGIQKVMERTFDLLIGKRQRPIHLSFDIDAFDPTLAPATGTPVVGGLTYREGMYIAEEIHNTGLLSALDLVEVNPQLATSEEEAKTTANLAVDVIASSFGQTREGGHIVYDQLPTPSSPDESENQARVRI
PROCEDURE DETAILS: in vitro enzyme assay to detect the production of urea directly proportional to the activity of Arginase II
Type: functional
Set-up: scale not given: in the data most compounds retested in dose-response had high values
TEST CONDITIONS: 33.3 µM

{"columns": ["COMPOUND", "TEST TARGET", "Percent Effect [%]"],
 "data": [
  ["Cc1nc(C2CCCN(C(=O)c3ccc(Cn4cccn4)o3)C2)no1 (centres undefined)", "Arginase-2, mitochondrial (Homo sapiens) (UniProt P78540)", 5.34],
  ["O=C(c1ccc(Br)o1)N1CCCC(n2cncn2)C1 (centres undefined)", "Arginase-2, mitochondrial (Homo sapiens) (UniProt P78540)", -2.21],
  ["O=C(NCCNc1ncccn1)c1ccc(-c2ccco2)[nH]c1=O", "Arginase-2, mitochondrial (Homo sapiens) (UniProt P78540)", -11.6],
  ["CNC(=O)[C@H]1CO[C@H]2CCN(Cc3ccc4ccccc4n3)C[C@H]2C1", "Arginase-2, mitochondrial (Homo sapiens) (UniProt P78540)", 9.87],
  ["CN(C)c1cc(CNC(=O)c2ccc(F)cc2F)ccn1", "Arginase-2, mitochondrial (Homo sapiens) (UniProt P78540)", -1.78],
  ["CCN(c1ccc(C(=O)NCCCN2CCCC2)cc1)S(=O)(=O)CC", "Arginase-2, mitochondrial (Homo sapiens) (UniProt P78540)", -7.1],
  ["Cc1nnc(N2CC[C@H](OCC3CC3)[C@@H](Cc3ccccc3)C2)s1", "Arginase-2, mitochondrial (Homo sapiens) (UniProt P78540)", -31.7],
  ["CCc1ccc(NC(=O)N2C[C@H]3C[C@H](C(=O)NC)[C@@H](C2)O3)cc1", "Arginase-2, mitochondrial (Homo sapiens) (UniProt P78540)", 0.645],
  ["Cc1csc(CNC(=O)NCCc2ccc3c(c2)OCCO3)n1", "Arginase-2, mitochondrial (Homo sapiens) (UniProt P78540)", -3.58],
  ["Cc1cnn(CC2CCCN2Cc2nc3ccccc3n2C)c1 (centres undefined)", "Arginase-2, mitochondrial (Homo sapiens) (UniProt P78540)", 1.9],
  ["CNC(=O)c1ccc(C(=O)N2CCCC(n3cc(C)cn3)C2)cn1 (centres undefined)", "Arginase-2, mitochondrial (Homo sapiens) (UniProt P78540)", 3.56],
  ["CN(Cc1cccc(O)c1)CC1CCCN(CCc2ccc(Cl)cc2)C1 (centres undefined)", "Arginase-2, mitochondrial (Homo sapiens) (UniProt P78540)", 4.22],
  ["Cc1ccc(CN(C)C(=O)CN2CCOC(Cn3cncn3)C2)o1 (centres undefined)", "Arginase-2, mitochondrial (Homo sapiens) (UniProt P78540)", 9.89],
  ["CCC(=O)N1CCc2[nH]cnc2C12CCN(C(=O)c1snnc1C)CC2", "Arginase-2, mitochondrial (Homo sapiens) (UniProt P78540)", 10.9],
  ["CCNC(=O)Nc1ccc2c(ccn2CC(=O)N(CC)CC)c1", "Arginase-2, mitochondrial (Homo sapiens) (UniProt P78540)", -4.6],
  ["O=C1N(c2ccccc2)Cc2nc(=O)[nH]n21", "Arginase-2, mitochondrial (Homo sapiens) (UniProt P78540)", -3.35],
  ["CC(=O)Nc1nc(C(=O)N2CCCC2Cn2cc(C)cn2)cs1 (centres undefined)", "Arginase-2, mitochondrial (Homo sapiens) (UniProt P78540)", 1.47],
  ["CC(C)N(CC(N)=O)Cc1csc(Cc2ccccc2)n1", "Arginase-2, mitochondrial (Homo sapiens) (UniProt P78540)", 0],
  ["CCc1ccc(C(=O)O)cc1S(=O)(=O)Nc1ccc(F)c(C#N)c1", "Arginase-2, mitochondrial (Homo sapiens) (UniProt P78540)", -0.802],
  ["Cc1nccn1C1CCCN(C(=O)c2cc3ccccc3[nH]2)C1 (centres undefined)", "Arginase-2, mitochondrial (Homo sapiens) (UniProt P78540)", 0.76],
  ["CC(=O)c1c(F)cccc1N1CCC(Cc2cccnc2)CC1", "Arginase-2, mitochondrial (Homo sapiens) (UniProt P78540)", 2.4],
  ["CCCc1cc(NC2CCc3ncnn3C2)n2ncnc2n1 (centres undefined)", "Arginase-2, mitochondrial (Homo sapiens) (UniProt P78540)", -0.455],
  ["Fc1ccc(OCCCN2CCOC(Cn3cncn3)C2)cc1 (centres undefined)", "Arginase-2, mitochondrial (Homo sapiens) (UniProt P78540)", -3.23],
  ["CCOCCNc1nc(C2CCCC2)nc2c1cnn2C", "Arginase-2, mitochondrial (Homo sapiens) (UniProt P78540)", 2.73]
]}
